assayed system: T1, SHP2 C-SH2 domain 102-220 (human, UniProt Q06124 102-220)
T1 sequence (looked up): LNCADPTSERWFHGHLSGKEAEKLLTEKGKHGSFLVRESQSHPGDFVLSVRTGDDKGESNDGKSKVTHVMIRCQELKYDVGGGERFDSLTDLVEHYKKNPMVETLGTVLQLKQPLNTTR
protocol notes: ITC
Square brackets hold non-standard residues; d marks the D form. Ends that are not written are not given here. pY = N[C@@H](Cc1ccc(OP(=O)(O)O)cc1)C(=O)O
property label: Kd (µM)
Numbers only, in µM.

response.value for ERVD[pY]VVVDQQKTLALKSTREAW (peptide, UniProt Q13480 655-677, looked up) [pY659-Gab1 655-677 monophosphorylated peptide] (field: Kd) = 4

Data origin: paper doi:10.1101/2024.12.23.630100
